Consider the following molecules and their measured IC50 readings.
- procedure_text: Binding affinity to human FR-alpha receptor expressed in Chinese hamster RT16 cells assessed as antiproliferative activity measured as reduction in cell viability after 96 hrs by Cell-Titer Blue assay

[
  {
    "molecule": "Nc1nc2[nH]c(CCC#Cc3cccc(C(=O)N[C@@H](CCC(=O)O)C(=O)O)n3)cc2c(=O)[nH]1",
    "IC50": "> 1000 nM"
  }
]

Exercise: Name the recorded IC50 for C#CCC(Cc1cnc2nc(N)nc(N)c2n1)c1ccc(C(=O)N[C@@H](CCC(=O)O)C(=O)O)cc1 (stereo partly specified) .
Key: 168 nM

Exercise: Name the recorded IC50 for Nc1nc2[nH]c(CCC#Cc3ccc(C(=O)N[C@@H](CCC(=O)O)C(=O)O)nc3)cc2c(=O)[nH]1 .
Key: 4.4 nM

Exercise: Name the recorded IC50 for Nc1nc2[nH]c(CCCCc3ccc(C(=O)N[C@@H](CCC(=O)O)C(=O)O)cn3)cc2c(=O)[nH]1 .
Key: 15 nM

Exercise: Name the recorded IC50 for Nc1nc2[nH]c(CCCCc3cccc(C(=O)N[C@@H](CCC(=O)O)C(=O)O)n3)cc2c(=O)[nH]1 .
Key: 186 nM

Exercise: Name the recorded IC50 for Nc1nc2[nH]c(CCC#Cc3ccc(C(=O)N[C@@H](CCC(=O)O)C(=O)O)cn3)cc2c(=O)[nH]1 .
Key: 449 nM
